# target: PDE4B1 (Homo sapiens)
# Construct: made in house; host or cells: SF21 insect cells (baculovirus; virus made in SF9 cells, pCR-Bac vector)
# Sequence (Q07343 whole entry): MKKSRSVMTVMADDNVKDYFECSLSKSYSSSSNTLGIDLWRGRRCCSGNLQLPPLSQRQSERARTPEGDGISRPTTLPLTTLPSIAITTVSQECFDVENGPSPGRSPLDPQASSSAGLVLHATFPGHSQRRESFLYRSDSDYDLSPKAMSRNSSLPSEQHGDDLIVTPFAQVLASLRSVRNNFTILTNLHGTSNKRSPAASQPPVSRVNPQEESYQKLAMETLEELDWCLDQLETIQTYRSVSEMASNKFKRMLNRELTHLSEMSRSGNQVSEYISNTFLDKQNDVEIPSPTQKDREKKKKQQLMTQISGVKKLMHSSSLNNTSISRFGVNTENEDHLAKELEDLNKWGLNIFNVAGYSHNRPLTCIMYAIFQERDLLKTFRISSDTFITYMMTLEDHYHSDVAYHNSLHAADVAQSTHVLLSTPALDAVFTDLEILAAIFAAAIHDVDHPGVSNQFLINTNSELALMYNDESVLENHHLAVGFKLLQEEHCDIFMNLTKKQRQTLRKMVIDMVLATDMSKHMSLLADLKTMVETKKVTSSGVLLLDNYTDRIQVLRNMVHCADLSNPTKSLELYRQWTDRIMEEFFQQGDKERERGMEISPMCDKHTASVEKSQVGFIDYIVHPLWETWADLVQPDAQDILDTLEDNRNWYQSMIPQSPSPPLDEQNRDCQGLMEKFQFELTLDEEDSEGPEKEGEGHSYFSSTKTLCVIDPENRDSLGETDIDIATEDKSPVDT
# assay-notes: Inhibition of PDE4 activity (PDE4B1, SPA assay)
# Assay type: biochemical
# assay-context: recombinant PDE4B1, 0.5 μM cAMP; read-out: PDE4B1 Inhibitory values measured as -logIC50 (converted)
recorded-metric: IC50

Task item: Which IC50 value belongs to `COc1ccc(C2=NN(C3CCN(C(=O)[C@@H](Cc4ccc(C(C)(C)C)cc4)NC(=O)c4c[nH]c5c(-c6c(OCC7CC7)ccc7c6OCO7)ncnc45)CC3)C(=O)[C@@H]3CCCC[C@H]23)cc1OC` ?
Reply: 1 to 10 nM

Task item: Then this compound: `COc1ccc(C2=NN(C3CCN(C(=O)[C@@H](CCC(=O)NC(C)C)NC(=O)c4c[nH]c5c(-c6c(OCC7CC7)ccc7c6OCO7)ncnc45)CC3)C(=O)[C@@H]3CCCC[C@H]23)cc1OC`
Reply: 1 to 10 nM

Task item: Then this compound: `COc1ccc(C2=NN(C3CCN(C(=O)[C@@H](Cc4cccc(C)c4)NC(=O)c4c[nH]c5c(-c6c(OCC7CC7)ccc7c6OCO7)ncnc45)CC3)C(=O)[C@@H]3CCCC[C@H]23)cc1OC`
Reply: 1 to 10 nM

----------
# target: PDE4B1 (Homo sapiens)
# Construct: made in house; host or cells: SF21 insect cells (baculovirus; virus made in SF9 cells, pCR-Bac vector)
# assay-notes: Inhibition of PDE4 activity (PDE4B1, SPA assay)
# Type: biochemical
# assay-context: recombinant PDE4B1, 0.5 μM cAMP; read-out: PDE4B1 Inhibitory values measured as -logIC50 (converted)
recorded-metric: IC50

Task item: Which IC50 value belongs to `COc1ccc(C2=NN(C3CCN(C(=O)[C@H](Cc4ccccn4)NC(=O)c4c[nH]c5c(-c6c(OCC7CC7)ccc7c6OCO7)ncnc45)CC3)C(=O)[C@@H]3CCCC[C@H]23)cc1OC` ?
Reply: < 1 nM

Task item: Then this compound: `COc1ccc(C2=NN(C3CCN(C(=O)[C@@H](Cc4cscn4)NC(=O)c4c[nH]c5c(-c6c(OCC7CC7)ccc7c6OCO7)ncnc45)CC3)C(=O)[C@@H]3CCCC[C@H]23)cc1OC`
Reply: < 1 nM

Task item: Then this compound: `COc1ccc(C2=NN(C3CCN(C(=O)[C@@H](Cc4ccc(N5CCCC5=O)cc4)NC(=O)c4c[nH]c5c(-c6c(OCC7CC7)ccc7c6OCO7)ncnc45)CC3)C(=O)[C@@H]3CCCC[C@H]23)cc1OC`
Reply: < 1 nM

Task item: Then this compound: `COc1ccc(C2=NN(C3CCN(C(=O)[C@H](CCC(=O)OCc4ccccc4)NC(=O)c4c[nH]c5c(-c6c(OCC7CC7)ccc7c6OCO7)ncnc45)CC3)C(=O)[C@@H]3CCCC[C@H]23)cc1OC`
Reply: 1 to 10 nM

Task item: Then this compound: `COc1ccc(C2=NN(C3CCN(C(=O)[C@@H](Cc4c[nH]c5ccccc45)NC(=O)c4c[nH]c5c(-c6c(OCC7CC7)ccc7c6OCO7)ncnc45)CC3)C(=O)[C@@H]3CCCC[C@H]23)cc1OC`
Reply: < 1 nM

----------
# target: human PDE5 (Homo sapiens)
# Construct: from tissue; host or cells: human platelets from fresh donor blood (platelet lysate)
# assay-notes: Inhibition of PDE5 activity (platelet lysate, SPA assay)
# Format: biochemical
# assay-context: 0.5 μM cGMP, read-out: PDE5 Inhibitory values measured as -logIC50 (converted)
# Experimental: Method for Measuring Inhibition of PDE5 Activity As a source for human PDE5, platelets were used. […] PDE5 activities were measured in a 96-well platform using SPA (scintillation proximity assay) yttrium silicate beads (RPNQ1050 from GE Healthcare). […] Once the beads were sedimented (>30 min), the MTP's were analyzed in commercially available luminescence detection devices. […]
recorded-metric: IC50

Task item: Param readout = IC50; param system = human PDE5 (Homo sapiens); param query = COc1ccc(C2=NN(C3CCN(C(=O)[C@@H](Cc4ccc(C)cc4)NC(=O)c4c(C)[nH]c5c(-c6c(OCC7CC7)ccc7c6OCO7)ncnc45)CC3)C(=O)[C@@H]3CCCC[C@H]23)cc1OC [Example 15] ; response: value
Reply: 1 to 10 nM

Task item: Then this compound: COc1ccc(C2=NN(C3CCN(C(=O)[C@H](CCC(=O)OCc4ccccc4)NC(=O)c4c[nH]c5c(-c6c(OCC7CC7)ccc7c6OCO7)ncnc45)CC3)C(=O)[C@@H]3CCCC[C@H]23)cc1OC [Example 104]
Reply: 1 to 10 nM

Task item: Then this compound: COc1ccc(C2=NN(C3CCN(C(=O)[C@@H](CCC(=O)O)NC(=O)c4c[nH]c5c(-c6c(OCC7CC7)ccc7c6OCO7)ncnc45)CC3)C(=O)[C@@H]3CCCC[C@H]23)cc1OC [Example 101]
Reply: 1 to 10 nM

Task item: Then this compound: COc1ccc(C2=NN(C3CCN(C(=O)[C@H](Cc4ccncc4)NC(=O)c4c[nH]c5c(-c6c(OCC7CC7)ccc7c6OCO7)ncnc45)CC3)C(=O)[C@@H]3CCCC[C@H]23)cc1OC [Example 41]
Reply: < 1 nM

Task item: Then this compound: COc1ccc(C2=NN(C3CCN(C(=O)[C@@H](Cc4ccc(C#N)cc4)NC(=O)c4c(C)[nH]c5c(-c6c(OCC7CC7)ccc7c6OCO7)ncnc45)CC3)C(=O)[C@@H]3CCCC[C@H]23)cc1OC [Example 14]
Reply: > 10 nM

Task item: Then this compound: COc1ccc(C[C@@H](NC(=O)c2c[nH]c3c(-c4c(OCC5CC5)ccc5c4OCO5)ncnc23)C(=O)N2CCC(N3N=C(c4ccc(OC)c(OC)c4)[C@H]4CCCC[C@H]4C3=O)CC2)cc1 [Example 29]
Reply: < 1 nM
